Test system: NCI-H446
assay comment: excess over highest single agent (ExcessHSA) synergy score, 6x6 matrix; higher = less synergy (more negative = stronger synergy)
test settings: 72 h; CellTiter-Glo viability
In all, about 1,900 compounds were measured (“excess over highest single agent (ExcessHSA) synergy score, 6x6 matrix”: median about -83, lowest 2% from about -370 on). The sample holds the lowest values, similar compounds and a random draw of the others, so the mix is not that of the screen.
observed property: excess over highest single agent
Write no unit; give the number alone.

// query Need excess over highest single agent of CC1=C(C(=O)Nc2cc3cn[nH]c3cc2F)C(c2ccc(Cl)cc2F)N=C(c2ccnc(Cl)c2)N1 (centres undefined) + Cc1sc2c(c1C)C(c1ccc(Cl)cc1)=N[C@@H](CC(=O)OC(C)(C)C)c1nnc(C)n1-2 , thanks.
// result -142

// query Same thing, different compound: Cc1cn2cc(C(=O)N(C)CCO)cc(N[C@@H]3CCOc4cccc(C)c43)c2n1 + Cc1sc2c(c1C)C(c1ccc(Cl)cc1)=N[C@@H](CC(=O)OC(C)(C)C)c1nnc(C)n1-2
// result 64.1

// query Likewise for CC[C@@H]1/C=C(\C)C[C@H](C)C[C@H](OC)[C@H]2O[C@@](O)(C(=O)C(=O)N3CCCC[C@H]3C(=O)O[C@H](/C(C)=C/[C@@H]3CC[C@H](Cl)[C@H](OC)C3)[C@H](C)[C@@H](O)CC1=O)[C@H](C)C[C@@H]2OC + Cc1sc2c(c1C)C(c1ccc(Cl)cc1)=N[C@@H](CC(=O)OC(C)(C)C)c1nnc(C)n1-2 ?
// result -132

// query Same thing, different compound: O=C(c1ccc(Nc2nccc(-c3cc4ccccc4s3)n2)cc1)N1CCC(N2CCCC2)CC1 + Cc1sc2c(c1C)C(c1ccc(Cl)cc1)=N[C@@H](CC(=O)OC(C)(C)C)c1nnc(C)n1-2
// result -181

* * *

System: NCI-H446
assay comment: excess over highest single agent (ExcessHSA) synergy score, 6x6 matrix; higher = less synergy (more negative = stronger synergy)
test settings: 72 h; CellTiter-Glo viability
Whole data set: some 1,900 compounds, median “excess over highest single agent (ExcessHSA) synergy score, 6x6 matrix” near -83, cut for the lowest 2% near -370. This excerpt belongs to a sample that is enriched for the lowest values.
observed property: excess over highest single agent

// query Bench note: what excess over highest single agent did CC(C)Oc1cc(Nc2nc(N[C@@H](C)c3ccc(F)cn3)ncc2Cl)n[nH]1 + Cc1sc2c(c1C)C(c1ccc(Cl)cc1)=N[C@@H](CC(=O)OC(C)(C)C)c1nnc(C)n1-2 show?
// result -396

* * *

Tested on: NCI-H446
assay comment: excess over highest single agent (ExcessHSA) synergy score, 6x6 matrix; higher = less synergy (more negative = stronger synergy)
test settings: 72 h; CellTiter-Glo viability
The full ranking holds about 1,900 compounds; the median of “excess over highest single agent (ExcessHSA) synergy score, 6x6 matrix” is about -83, and the lowest 2% start at about -370. The sample holds the lowest values, similar compounds and a random draw of the others, so the mix is not that of the screen.
Known excess over highest single agent of a selection of compounds

In the examples that follow, each entry is paired with its recorded excess over highest single agent.
Cc1nnc(C(C)C)n1[C@H]1C[C@H]2CC[C@@H](C1)N2CC[C@H](NC(=O)C1CCC(F)(F)CC1)c1ccccc1 + Cc1sc2c(c1C)C(c1ccc(Cl)cc1)=N[C@@H](CC(=O)OC(C)(C)C)c1nnc(C)n1-2 = -88.4
c1ccc2c(Cc3c[nH]c4ccccc34)c[nH]c2c1 + Cc1sc2c(c1C)C(c1ccc(Cl)cc1)=N[C@@H](CC(=O)OC(C)(C)C)c1nnc(C)n1-2 = -83.3
O=C1CSC(=O)N1C(CCc1ccncc1)COc1ccc(-c2cccc([N+](=O)[O-])c2)cc1 (stereo unspecified) + Cc1sc2c(c1C)C(c1ccc(Cl)cc1)=N[C@@H](CC(=O)OC(C)(C)C)c1nnc(C)n1-2 = -96.7
O=C(O)C(=O)O.[NH-]C1CCCCC1[NH-].[Pt+2] (stereo unspecified) + Cc1sc2c(c1C)C(c1ccc(Cl)cc1)=N[C@@H](CC(=O)OC(C)(C)C)c1nnc(C)n1-2 = -135
COc1cc(Oc2ccnc3cc(OC)c(OC)cc23)ccc1NC(=O)NC(C)c1nccs1 (stereo unspecified) + Cc1sc2c(c1C)C(c1ccc(Cl)cc1)=N[C@@H](CC(=O)OC(C)(C)C)c1nnc(C)n1-2 = -83.5

// below: excess over highest single agent requested for another compound
// query Return reported excess over highest single agent; argument: O=C(Nc1cccc(Nc2ncc(Br)c(NCCc3cnc[nH]3)n2)c1)N1CCCC1 + Cc1sc2c(c1C)C(c1ccc(Cl)cc1)=N[C@@H](CC(=O)OC(C)(C)C)c1nnc(C)n1-2
// result -166
